- ASSAY_EXPLANATION: Pharmacokinetic evaluation in mice (IV and PO)
- Format: in vivo
- PROTOCOL_CONDITIONS: mouse, plasma; CD-1 mice; dose IV:1, PO:5 mg/kg; read-out: Bioavailability F
# Lookup of reported bioavailability keyed by entry
The reply should read as a number followed by its unit.

Cc1c(NC(=O)CC(C)(C)C)n(C)c2cc(Nc3ccc(F)cc3)ccc12 [Compound 1] : 83.9%
Cc1nc(Nc2ccc3c(C)c(NC(=O)CC(C)(C)C)n(C)c3c2)ccc1F [Compound 41] : 78.2%

input: State its bioavailability: Cc1nc(Nc2ccc3c(C)c(NC(=O)CC4(C)CC4)n(C)c3c2)ccc1F [Compound 36]
output: 92.7%

----------
Measured pIC50, listed per entry for reference.
- TESTED_SYSTEM: CYP3A4 (Homo sapiens)
- Sequence (P08684 2-503): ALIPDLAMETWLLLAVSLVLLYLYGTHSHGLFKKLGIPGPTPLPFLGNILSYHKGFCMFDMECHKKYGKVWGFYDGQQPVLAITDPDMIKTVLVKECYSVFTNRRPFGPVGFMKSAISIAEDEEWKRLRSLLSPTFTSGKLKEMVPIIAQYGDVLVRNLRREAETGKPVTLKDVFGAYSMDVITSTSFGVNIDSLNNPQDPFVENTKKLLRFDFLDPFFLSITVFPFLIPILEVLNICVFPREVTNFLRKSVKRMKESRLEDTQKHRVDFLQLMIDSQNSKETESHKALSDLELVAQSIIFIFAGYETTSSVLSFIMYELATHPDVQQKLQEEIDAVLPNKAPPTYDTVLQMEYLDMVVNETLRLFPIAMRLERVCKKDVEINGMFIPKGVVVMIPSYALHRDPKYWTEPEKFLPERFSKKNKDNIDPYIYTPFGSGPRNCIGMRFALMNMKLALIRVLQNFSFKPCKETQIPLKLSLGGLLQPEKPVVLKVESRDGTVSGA
- ASSAY_EXPLANATION: Drug-drug interaction evaluation: CYP inhibition in human liver microsomes (cocktail method)
pIC50: −log10 of the molar value.

Consider the worked cases shown below.
Cc1c(NC(=O)CC(C)(C)C)n(C)c2cc(Nc3ccc(C(F)(F)F)cc3)ccc12 : < 4.30
Cc1c(NC(=O)CC(C)(C)C)n(C)c2cc(Nc3ncc(F)cc3F)ccc12 : < 4.30
Cc1nc(Nc2ccc3c(C)c(NC(=O)CC(C)(C)C)n(C)c3c2)ccc1F : < 4.30
Cc1c(NC(=O)CC2(C)CC2)n(C)c2cc(Nc3ccc(F)cc3)ccc12 : 4.43
Cc1c(NC(=O)CC2(C)CC2)n(C)c2cc(Nc3ncc(F)cc3F)ccc12 : < 4.30

With those in mind, consider the next compound.
input: Please list pIC50 recorded for the compound Cc1cc(F)cnc1Nc1ccc2c(C)c(NC(=O)CC(C)(C)C)n(C)c2c1
output: < 4.30

----------
Reported half-life by item:
- ASSAY_EXPLANATION: Pharmacokinetic evaluation in mice (IV and PO)
- Assay type: in vivo
- PROTOCOL_CONDITIONS: mouse, plasma; CD-1 mice; IV; dose IV:0.5, PO:2 mg/kg; read-out: Half-life T1/2 (IV) (converted)
State just the number; it will be interpreted in h.

CC(C)(C)CC(=O)Nc1nc2c(F)cc(Nc3ccc(F)cc3)cc2n1C1CCC1 [Compound 4] : 1.2
Cc1c(NC(=O)CC(C)(C)C)n(C)c2cc(Nc3ccc(F)cn3)ccc12 [Compound 11] : 0.7

input: Note down half-life recorded for Cc1c(NC(=O)CC(C)(C)C)n(C)c2cc(Nc3ccc(F)cc3)ccc12 [Compound 1]
output: 1.83

input: Return reported half-life. Input compound: Cc1c(NC(=O)CC(C)(C)C)n(C)c2cc(Nc3ccc(C(F)(F)F)cc3)ccc12 [Compound 5]
output: 5.9

----------
- ASSAY_EXPLANATION: Pharmacokinetic evaluation in mice (IV and PO)
- Assay type: in vivo
- PROTOCOL_CONDITIONS: mouse, plasma; CD-1 mice; dose IV:0.5, PO:2 mg/kg; read-out: Peak plasma concentration Cmax
Cmax values for the compounds below.
Write the value in nM as a bare number.

Reference set (2 entries):
CC(C)(C)CC(=O)Nc1nc2c(F)cc(Nc3ccc(F)cc3)cc2n1C1CCC1 [Compound 4] : 548
Cc1c(NC(=O)CC(C)(C)C)n(C)c2cc(Nc3ccc(F)cc3)ccc12 [Compound 1] : 322

Next compound, Cmax to be filled in.
input: Indicate its recorded Cmax; the compound in question is Cc1c(NC(=O)CC(C)(C)C)n(C)c2cc(Nc3ccc(F)cn3)ccc12 [Compound 11]
output: 524

----------
Each entry below carries its recorded half-life.
- ASSAY_EXPLANATION: Pharmacokinetic evaluation in mice (IV and PO)
- Assay type: in vivo
- PROTOCOL_CONDITIONS: mouse, plasma; CD-1 mice; IV; dose IV:1, PO:5 mg/kg; read-out: Half-life T1/2 (IV) (converted)
Your answer is read as h, so omit the unit and give the number.

Cc1c(NC(=O)CC(C)(C)C)n(C)c2cc(Nc3ccc(F)cc3)ccc12 : 1.63

input: Check the records and state half-life for Cc1nc(Nc2ccc3c(C)c(NC(=O)CC(C)(C)C)n(C)c3c2)ccc1F
output: 0.7

input: Return half-life for the following compound: Cc1nc(Nc2ccc3c(C)c(NC(=O)CC4(C)CC4)n(C)c3c2)ccc1F
output: 1.7

----------
- TESTED_SYSTEM: hKCNQ2/3 (Homo sapiens, UniProt O43525+O43526)
- Construct: expressed in transfected cells; host or cells: CHO
- Sequence (O43526 whole entry): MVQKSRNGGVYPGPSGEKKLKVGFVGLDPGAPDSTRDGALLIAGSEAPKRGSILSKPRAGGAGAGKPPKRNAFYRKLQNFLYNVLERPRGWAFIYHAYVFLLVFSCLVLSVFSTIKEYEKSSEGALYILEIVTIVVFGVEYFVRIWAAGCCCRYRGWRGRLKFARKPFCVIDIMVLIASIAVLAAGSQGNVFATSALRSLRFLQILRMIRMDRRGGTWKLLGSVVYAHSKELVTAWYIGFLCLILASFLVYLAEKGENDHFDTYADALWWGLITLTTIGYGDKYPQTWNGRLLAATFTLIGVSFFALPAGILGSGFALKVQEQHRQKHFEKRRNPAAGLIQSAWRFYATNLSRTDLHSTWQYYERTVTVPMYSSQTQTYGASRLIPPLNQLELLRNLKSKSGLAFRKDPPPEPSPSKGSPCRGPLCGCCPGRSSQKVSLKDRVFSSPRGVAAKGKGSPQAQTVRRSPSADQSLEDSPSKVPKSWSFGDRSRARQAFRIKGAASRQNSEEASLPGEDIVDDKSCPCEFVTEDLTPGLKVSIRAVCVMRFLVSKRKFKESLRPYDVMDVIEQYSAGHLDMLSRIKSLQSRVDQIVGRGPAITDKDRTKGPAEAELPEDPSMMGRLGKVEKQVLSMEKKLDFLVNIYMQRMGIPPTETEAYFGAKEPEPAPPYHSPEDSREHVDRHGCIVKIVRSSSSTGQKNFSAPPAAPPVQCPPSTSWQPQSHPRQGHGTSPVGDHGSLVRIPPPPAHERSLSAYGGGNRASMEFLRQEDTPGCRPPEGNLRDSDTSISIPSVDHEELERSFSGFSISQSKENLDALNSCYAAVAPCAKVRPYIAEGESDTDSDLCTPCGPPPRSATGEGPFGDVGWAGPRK
- Sequence (O43525 whole entry): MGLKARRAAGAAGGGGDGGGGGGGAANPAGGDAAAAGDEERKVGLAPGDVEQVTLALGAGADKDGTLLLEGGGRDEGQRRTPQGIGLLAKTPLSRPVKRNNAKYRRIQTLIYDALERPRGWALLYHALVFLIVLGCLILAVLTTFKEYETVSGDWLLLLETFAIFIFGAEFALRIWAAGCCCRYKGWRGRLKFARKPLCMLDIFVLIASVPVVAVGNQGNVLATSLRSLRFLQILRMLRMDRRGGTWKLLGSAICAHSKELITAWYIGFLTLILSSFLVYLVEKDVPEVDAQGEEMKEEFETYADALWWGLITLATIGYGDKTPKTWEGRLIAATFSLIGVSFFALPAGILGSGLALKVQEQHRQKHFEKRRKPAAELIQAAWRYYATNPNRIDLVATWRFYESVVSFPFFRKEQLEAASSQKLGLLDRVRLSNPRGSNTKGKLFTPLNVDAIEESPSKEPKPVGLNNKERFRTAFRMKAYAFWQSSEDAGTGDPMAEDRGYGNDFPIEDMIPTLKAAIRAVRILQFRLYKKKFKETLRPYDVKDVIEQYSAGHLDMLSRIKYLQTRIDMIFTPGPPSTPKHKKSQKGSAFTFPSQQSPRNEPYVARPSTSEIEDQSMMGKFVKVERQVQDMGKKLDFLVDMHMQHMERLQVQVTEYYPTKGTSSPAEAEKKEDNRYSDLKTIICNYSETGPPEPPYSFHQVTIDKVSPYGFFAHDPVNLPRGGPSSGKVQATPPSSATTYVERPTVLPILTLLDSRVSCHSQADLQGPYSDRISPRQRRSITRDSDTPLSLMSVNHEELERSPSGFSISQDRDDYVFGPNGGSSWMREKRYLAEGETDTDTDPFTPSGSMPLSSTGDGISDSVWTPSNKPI
- ASSAY_EXPLANATION: cell-based
- PROTOCOL_CONDITIONS: agonistic effect; CHO cells stably expressing hKCNQ2/3; FLIPR thallium flux; read-out: EC50
PROPERTY_MEASURED: pEC50
FYI, pEC50 means -log10 of a concentration in mol per litre.

// worked examples, pEC50 included
Cc1c(NC(=O)CC2(C)CC2)n(C)c2cc(Nc3ccc(F)cn3)ccc12 : 6.25
Cc1c(NC(=O)C2CC2)n(C)c2cc(Nc3ccc(F)cc3)ccc12 : 6.30
Cc1c(NC(=O)CC(C)(C)C)n(C)c2cc(Nc3ccc(Cl)cn3)ccc12 : 6.68

input: Entry Cc1c(NC(=O)C2CCCC2)n(C)c2cc(Nc3ccc(F)cn3)ccc12 needs its pEC50 filled in; supply it.
output: 6.66

input: // fetch pEC50 given entry Cc1c(NC(=O)CC(C)(C)C)n(C)c2cc(Nc3ncc(F)cn3)ccc12
output: 6.09

----------
- ASSAY_EXPLANATION: Pharmacokinetic evaluation in mice (IV and PO)
- Format: in vivo
- PROTOCOL_CONDITIONS: mouse, plasma; CD-1 mice; dose IV:0.5, PO:2 mg/kg; read-out: Bioavailability F
PROPERTY_MEASURED: bioavailability (%)
Dear colleague, please return just the value in %, with no unit written.

// solved cases for bioavailability follow
Cc1c(NC(=O)CC(C)(C)C)n(C)c2cc(Nc3ccc(F)cn3)ccc12 [Compound 11] : 62.2
CC(C)(C)CC(=O)Nc1nc2c(F)cc(Nc3ccc(F)cc3)cc2n1C1CCC1 [Compound 4] : 64.2
Cc1c(NC(=O)CC(C)(C)C)n(C)c2cc(Nc3ccc(C(F)(F)F)cc3)ccc12 [Compound 5] : 64

Next, consider the following compound.
input: Give the reported bioavailability for this compound. Cc1c(NC(=O)CC(C)(C)C)n(C)c2cc(Nc3ccc(F)cc3)ccc12 [Compound 1]
output: 79.6

----------
- TESTED_SYSTEM: CYP2C9 (Homo sapiens)
- Sequence (P11712 whole entry): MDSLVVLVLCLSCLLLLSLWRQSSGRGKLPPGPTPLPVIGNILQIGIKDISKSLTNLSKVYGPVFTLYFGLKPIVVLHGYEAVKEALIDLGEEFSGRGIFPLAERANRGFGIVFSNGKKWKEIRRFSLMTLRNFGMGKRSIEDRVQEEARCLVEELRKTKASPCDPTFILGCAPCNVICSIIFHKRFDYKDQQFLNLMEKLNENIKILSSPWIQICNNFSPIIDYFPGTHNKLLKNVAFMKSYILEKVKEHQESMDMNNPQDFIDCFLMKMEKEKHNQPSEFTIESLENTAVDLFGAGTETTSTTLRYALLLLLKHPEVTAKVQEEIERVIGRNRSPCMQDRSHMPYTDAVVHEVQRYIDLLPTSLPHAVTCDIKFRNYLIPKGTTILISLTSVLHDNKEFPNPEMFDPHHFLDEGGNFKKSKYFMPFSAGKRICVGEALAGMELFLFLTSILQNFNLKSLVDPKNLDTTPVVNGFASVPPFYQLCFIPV
- ASSAY_EXPLANATION: Drug-drug interaction evaluation: CYP inhibition in human liver microsomes (cocktail method)
- From the text: The cocktail method using specific probe substrates for CYP1A2, CYP2C9, CYP2C19, CYP2D6 and CYP3A was used to evaluate the inhibitory effect of the compounds on the activity of human liver microsomal cytochrome P450 isoenzymes (CYP1A2, CYP2C9, CYP2C19, CYP2D6 and CYP3A). Human liver microsomes, probe substrates, positive control inhibitors, and reduced nicotinamide adenine dinucleotide phosphate (NADPH). […]
Below, each entry is listed with its recorded pIC50.
Kindly note that pIC50 refers to -log10 of the concentration in mol/L and answer with the value alone.

Cc1nc(Nc2ccc3c(C)c(NC(=O)CC(C)(C)C)n(C)c3c2)ccc1F [Compound 41] : 4.96

input: # return recorded pIC50 for entry Cc1c(NC(=O)CC2(C)CC2)n(C)c2cc(Nc3ccc(F)cc3)ccc12 [Compound 12]
output: 4.96

----------
- TESTED_SYSTEM: hKCNQ2/3 (Homo sapiens, UniProt O43525+O43526)
- Construct: expressed in transfected cells; host or cells: CHO
- ASSAY_EXPLANATION: cell-based
PROPERTY_MEASURED: EC50
Phrase the answer as number then unit, nothing more needed.

Examples with their reported EC50 follow.
Cc1nc(Nc2ccc3c(C)c(NC(=O)CC4(C)CC4)n(C)c3c2)ccc1F : 220 nM
Cc1c(NC(=O)CC(C)(C)C)n(C)c2cc(Nc3ccc(C(F)(F)F)cc3)ccc12 : 520 nM
Cc1c(NC(=O)CC(C)(C)C)n(C)c2cc(Nc3ncc(F)cc3F)ccc12 : 400 nM
Cc1c(NC(=O)CC2(C)CC2)n(C)c2cc(Nc3ncc(F)cc3F)ccc12 : 490 nM
Cc1c(NC(=O)CC(C)(C)C)n(C)c2cc(Nc3ccc(F)cn3)ccc12 : 200 nM
Cc1nc(Nc2ccc3c(C)c(NC(=O)CC(C)(C)C)n(C)c3c2)ccc1F : 290 nM
Cc1c(NC(=O)CC(C)(C)C)n(C)c2cc(Nc3ccc(F)cc3)ccc12 : 960 nM

input: Complete the entry with EC50 for Cc1c(NC(=O)CC2(C)CC2)n(C)c2cc(Nc3ccc(F)cc3)ccc12
output: 800 nM

----------
- ASSAY_EXPLANATION: Pharmacokinetic evaluation in mice (IV and PO)
- Format: in vivo
- PROTOCOL_CONDITIONS: mouse, plasma; CD-1 mice; PO; dose IV:0.5, PO:2 mg/kg; read-out: Area under the concentration-time curve AUC0-last PO
- Procedure: Test Method 2: Pharmacokinetic Evaluation in Mice Assay method: Test compounds were mixed with 5% DMSO / 60% polyethylene glycol (PEG400) / 35% water, vortexed and sonicated to obtain a clear 0.2 mg/mL solution, which was then filtered through a microporous membrane before use. […] The content of the target compound in plasma samples was determined by LC/MS/MS method, and pharmacokinetic parameters were calculated using Phoenix WinNonlin software (Pharsight, USA). […]
# Lookup of reported AUC(0-t) keyed by entry
Please state the figure in µM·h; there is no need to write the unit.

CC(C)(C)CC(=O)Nc1nc2c(F)cc(Nc3ccc(F)cc3)cc2n1C1CCC1 [Compound 4] : 2.98
Cc1c(NC(=O)CC(C)(C)C)n(C)c2cc(Nc3ccc(F)cn3)ccc12 [Compound 11] : 1.11

// moving on: another record for AUC(0-t)
input: // Input: Cc1c(NC(=O)CC(C)(C)C)n(C)c2cc(Nc3ccc(F)cc3)ccc12 [Compound 1] . Output its AUC(0-t) only.
output: 2.04
